- System: LOX IMVI melanoma
- test_details: NCI tumour cell line growth inhibition, 48 h; in the data active means GI50 below about 0.43 µM; inactive means the rest
I would appreciate it if you answered using one of these outcomes: active, inactive

# outcome recorded in this test, key = Cc1cc(-c2ncc(-c3cccnc3)cc2/C=C/c2ccccc2)cnc1-c1cccnc1
inactive

Continue with [O-]c1ccccc1/C=N/c1nccs1.[O-]c1ccccc1/C=N/c1nccs1.[O]=[U+2]=[O]
inactive

---

- System: MDA-MB-435
- test_details: NCI tumour cell line growth inhibition, 48 h
Please go through the items and note down their TGI.

Consider the worked cases shown below.
| compound | reported_result |
| --- | --- |
| Cc1ccc(Nc2nc3nc[nH]c3c(=O)[nH]2)cc1CO | 29.6 µM |
| CCOC(=O)NC(Nc1ncn(C(NC(=O)OCC)(C(F)(F)F)C(F)(F)F)n1)(C(F)(F)F)C(F)(F)F | > 100 µM |
| Cc1cc(C)c(-c2cc(O)c(-c3c(C)cc(C)cc3C)cc2O)c(C)c1 | > 100 µM |

# batch size: 2; output TGI per entry
1. O=C1Cc2c([nH]c3ccccc23)C2(CC3CCCCN13)OCCO2 (stereo not given)
2. O=C(c1c2c(cc3c1CC1(Cc4cc5c(cc4C1)CCCC5)C3)CCCC2)C(Br)Br

> 100 µM
28.7 µM

Would you mind listing TGI for each of the following compounds?
1. Cc1cc2c([nH]1)CSc1cc(S(=O)(=O)c3ccccc3)c(=O)[nH]c1-2
2. O=C1c2ccccc2-c2c1c(-c1ccc(O)cc1O)nc1ccc3ccccc3c21

0.46 µM
> 100 µM

Can you give me TGI for all of these, one by one?
1. CCCC[C@@H](C)/C=C1\CN2CCC[C@H]2[C@@](C)(O)[C@@H]1O
2. O=C(N=Nc1c(O)[nH]c2c(Cl)cc(Cl)cc12)c1ccccc1O
3. C=CCCC1CCCNC1=S (stereo not given)

> 100 µM
26.9 µM
> 100 µM

Origin of values: PubChem BioAssay (NCI)
